Every entry's value here was drawn from the supplement of paper PMC9112550.

test system: Escherichia coli TOP10; experiment: shrunken log2 fold change of peptide-encoding DNA abundance (4.5 h post-induction vs induction); higher = less antimicrobial activity (less host growth inhibition); conditions: time post-induction: 4.5 h; library: site-saturation at positions 5, 18, 19, 20;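 also: peptides expressed intracellularly from a pBAD plasmid library in pooled LB shake-flask culture, induced with 0.3% L-arabinose, DNA abundance read by NGS, three biological replicates, DESeq2 with apeglm shrinkage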

sequence: RRIRMRPPRLPRPRPRPYANPRP
shrunken log2 fold change: -0.139
--
sequence: RRIRCRPPRLPRPRPRPFVNPRP
shrunken log2 fold change: -0.521
--
sequence: RRIRRRPPRLPRPRPRPMLVPRP
shrunken log2 fold change: 0.196
--
sequence: RRIRTRPPRLPRPRPRPIWGPRP
shrunken log2 fold change: -0.144
--
sequence: RRIRCRPPRLPRPRPRPTAVPRP
shrunken log2 fold change: 0.393
--
sequence: RRIRHRPPRLPRPRPRPSQGPRP
shrunken log2 fold change: 0.0306
--
sequence: RRIRPRPPRLPRPRPRPTCVPRP
shrunken log2 fold change: -0.136
--
sequence: RRIRVRPPRLPRPRPRPYNHPRP
shrunken log2 fold change: -0.343
--
sequence: RRIRFRPPRLPRPRPRPKQPPRP
shrunken log2 fold change: 0.137
--
sequence: RRIRMRPPRLPRPRPRPQPGPRP
shrunken log2 fold change: 0.778
--
sequence: RRIRQRPPRLPRPRPRPFHSPRP
shrunken log2 fold change: -0.00884
--
sequence: RRIRKRPPRLPRPRPRPPHQPRP
shrunken log2 fold change: 0.61
--
sequence: RRIRERPPRLPRPRPRPFWCPRP
shrunken log2 fold change: -0.014
--
sequence: RRIRRRPPRLPRPRPRPQTSPRP
shrunken log2 fold change: 0.24
--
sequence: RRIRERPPRLPRPRPRPQCYPRP
shrunken log2 fold change: -0.186
--
sequence: RRIRERPPRLPRPRPRPGQVPRP
shrunken log2 fold change: 0.126
--
sequence: RRIRYRPPRLPRPRPRPRSEPRP
shrunken log2 fold change: 0.0596
--
sequence: RRIRQRPPRLPRPRPRPNVTPRP
shrunken log2 fold change: 0.0508
--
sequence: RRIRYRPPRLPRPRPRPSCLPRP
shrunken log2 fold change: -0.56
--
sequence: RRIRQRPPRLPRPRPRPHRKPRP
shrunken log2 fold change: -0.227
--
sequence: RRIRKRPPRLPRPRPRPGLLPRP
shrunken log2 fold change: 0.494
--
sequence: RRIRIRPPRLPRPRPRPAMDPRP
shrunken log2 fold change: -0.218
--
sequence: RRIRNRPPRLPRPRPRPFNEPRP
shrunken log2 fold change: -0.198
--
sequence: RRIRMRPPRLPRPRPRPWLHPRP
shrunken log2 fold change: -0.493
--
sequence: RRIRDRPPRLPRPRPRPCHHPRP
shrunken log2 fold change: -0.0426
--
sequence: RRIRARPPRLPRPRPRPTYEPRP
shrunken log2 fold change: 0.179
--
sequence: RRIRARPPRLPRPRPRPTQYPRP
shrunken log2 fold change: 0.116
--
sequence: RRIRVRPPRLPRPRPRPDMTPRP
shrunken log2 fold change: -0.0435
--
sequence: RRIRRRPPRLPRPRPRPNDHPRP
shrunken log2 fold change: 0.0277
--
sequence: RRIRSRPPRLPRPRPRPCPSPRP
shrunken log2 fold change: 0.0411
--
sequence: RRIRKRPPRLPRPRPRPDWCPRP
shrunken log2 fold change: 0.292
--
sequence: RRIRGRPPRLPRPRPRPVTMPRP
shrunken log2 fold change: 0.396
